measurement.notes: CEETOX_H295R_DOC_noMTC: CeeTox H295R High-throughput Steroidogenesis Assay for DOC, maximum tolerated concentration (MTC) filtered results only (AID 2283918)
applied.conditions: actives raise or lower the signal
Calls of active or inactive are those of the source. Rule for the calls: active = hit-call score of the fitted dose curve at least 0.9, where 1 is the maximum; inactive = score below 0.9.
Result category, one only: y = active, n = inactive

Q: Name the outcome recorded for N#Cc1ccc(C2CCCc3cncn32)cc1 (stereo not given) in the assay.
Ans: y

Q: Name the outcome recorded for "CC(C)c1ccc(O)c(C(C)C)c1" in the assay.
Ans: n

Q: Name the outcome recorded for "N#Cc1ccc(C(c2ccc(C#N)cc2)n2cncn2)cc1" in the assay.
Ans: n

Q: Name the outcome recorded for "CCCCC1C(=O)N(c2ccccc2)N(c2ccccc2)C1=O" in the assay.
Ans: n

Q: Name the outcome recorded for "COc1ccc(C(=O)/C(Br)=C\C(=O)O)cc1" in the assay.
Ans: y

---

Read-out: Collagen III, COL3A1 (gene 1281)
measurement.notes: BSK_hDFCGF_CollagenIII: BioMAP Diversity Plus: hDFCGF Assay for Collagen III Biomarker Activity (AID 2283056)
applied.conditions: primary human foreskin fibroblasts; actives raise or lower the signal
Calls of active or inactive are those of the source. The calls were made as follows: active = hit-call score of the fitted dose curve at least 0.9, where 1 is the maximum; inactive = score below 0.9.
Result category, one only: T for active, F for inactive

Q: Name the outcome recorded for "COC(OC)(C(=O)c1ccccc1)c1ccccc1" in the assay.
Ans: F

Q: Name the outcome recorded for "Clc1cc(Cl)c(Cl)c(Cl)c1Cl" in the assay.
Ans: F

Q: Name the outcome recorded for "C=CCCCCCCCCC=O" in the assay.
Ans: F

Q: Name the outcome recorded for "C=CC(=O)OCCCCCCOC(=O)C=C" in the assay.
Ans: T

Q: Name the outcome recorded for CCC1(C)C(=O)N(Cl)C(=O)N1Cl (stereo not drawn) in the assay.
Ans: F

Q: Name the outcome recorded for "CCCCCCCO" in the assay.
Ans: F

Q: Name the outcome recorded for CC(Cl)COP(=O)(OCC(C)Cl)OCC(C)Cl (stereo not drawn) in the assay.
Ans: F

Q: Name the outcome recorded for "C=CC(=O)OCCCCCCCC(C)C" in the assay.
Ans: F

Q: Name the outcome recorded for "Cc1c(O)cccc1O" in the assay.
Ans: F

Q: Name the outcome recorded for "COc1ccc(C(=O)c2ccccc2)c(O)c1" in the assay.
Ans: F

Q: Name the outcome recorded for "Cc1ccc([N+](=O)[O-])cc1N" in the assay.
Ans: F

Q: Name the outcome recorded for "Oc1c(Cl)cc(Cl)c(Cl)c1Cl" in the assay.
Ans: T

Q: Name the outcome recorded for "Nc1ccc(C(=O)O)cc1" in the assay.
Ans: F

Q: Name the outcome recorded for "CC(c1cc(C(C)(C)C)cc(C(C)(C)C)c1O)c1cc(C(C)(C)C)cc(C(C)(C)C)c1O" in the assay.
Ans: F

Q: Name the outcome recorded for CCCC(C)C(=O)OCC (stereo not drawn) in the assay.
Ans: F

Q: Name the outcome recorded for "CCCCC1C(=O)N(c2ccccc2)N(c2ccccc2)C1=O" in the assay.
Ans: F

Q: Name the outcome recorded for "C=CC(=O)NC(C)(C)C" in the assay.
Ans: F

Q: Name the outcome recorded for "CCCCCCOC(=O)CCCCC(=O)OCCCCCC" in the assay.
Ans: F

Q: Name the outcome recorded for "O=C(Oc1ccccc1)c1ccccc1C(=O)Oc1ccccc1" in the assay.
Ans: T

Q: Name the outcome recorded for "CCCCCCCCCCCC(C)=O" in the assay.
Ans: F

Q: Name the outcome recorded for "Oc1ccccc1Cc1ccccc1O" in the assay.
Ans: F

Q: Name the outcome recorded for "CCOC(=O)/C=C\C(=O)OCC" in the assay.
Ans: F

Q: Name the outcome recorded for C=CC(=O)OCC(C)OCC(C)OCC(C)OC(=O)C=C (stereo not drawn) in the assay.
Ans: T

Q: Name the outcome recorded for "CC/C=C\C/C=C\C/C=C\CCCCCCCC(=O)OC" in the assay.
Ans: T

Q: Name the outcome recorded for "CC=C(C)C(C)=O" in the assay.
Ans: T

Q: Name the outcome recorded for "CCN1CN(CC)CN(CC)C1" in the assay.
Ans: F

Q: Name the outcome recorded for "C=C(C)C(=O)OCCCCCCCCCCCC" in the assay.
Ans: F

Q: Name the outcome recorded for "C=CC(=O)NCOCCCC" in the assay.
Ans: F

Origin of measurements: PubChem BioAssay (EPA / NIEHS)
